target_system: Tyrosine-protein phosphatase non-receptor type 11 (Homo sapiens) (UniProt Q06124)
Sequence (whole entry): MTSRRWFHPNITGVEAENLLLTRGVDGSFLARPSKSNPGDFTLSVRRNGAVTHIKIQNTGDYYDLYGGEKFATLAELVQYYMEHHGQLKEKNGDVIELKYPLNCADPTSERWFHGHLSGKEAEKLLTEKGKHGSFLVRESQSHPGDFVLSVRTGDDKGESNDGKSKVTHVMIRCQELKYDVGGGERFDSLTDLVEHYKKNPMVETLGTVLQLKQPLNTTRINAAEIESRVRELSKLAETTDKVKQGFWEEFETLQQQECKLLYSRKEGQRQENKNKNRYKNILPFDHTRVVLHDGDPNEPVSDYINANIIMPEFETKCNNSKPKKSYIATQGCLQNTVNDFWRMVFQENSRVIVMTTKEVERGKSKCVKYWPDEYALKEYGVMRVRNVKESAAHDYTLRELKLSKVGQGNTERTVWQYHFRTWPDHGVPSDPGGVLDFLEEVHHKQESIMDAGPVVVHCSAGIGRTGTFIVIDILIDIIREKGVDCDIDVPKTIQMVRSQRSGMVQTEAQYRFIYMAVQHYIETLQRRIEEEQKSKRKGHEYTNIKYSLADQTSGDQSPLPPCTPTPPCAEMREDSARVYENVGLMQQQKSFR
method: Inhibition of recombinant human phosphatase (SHP-2) at a concentration of 100 uM
# inhibition >= 20% gives yes, anything below gives no

Solved entries:
{"columns": ["compound_structure", "discrete_label"],
 "data": [
  ["CCCCCNC(=O)[C@H](Cc1ccc(OCC(=O)O)c(C(=O)O)c1)NC(=O)[C@H](CCOCOC)NC(=O)OC(C)(C)C", "no"],
  ["CCCCCNC(=O)[C@H](Cc1ccc(OC(C(=O)O)C(=O)O)cc1)NC(=O)[C@H](Cc1ccccc1)NC(=O)CCOC", "no"]
]}

Exam item: decide whether the reported inhibition for `CCCCCNC(=O)[C@H](Cc1ccc(OCC(=O)O)c(C(=O)O)c1)NC(=O)[C@H](Cc1ccccc1)NC(=O)Cc1c[nH]c2ccccc12` is at least 20%.
yes

Same read-out for `CCCCCNC(=O)[C@H](Cc1ccc(OCC(=O)O)c(C(=O)O)c1)NC(=O)[C@H](Cc1ccccc1)NC(=O)CCNS(C)(=O)=O` ?
yes

Same read-out for `CCCCCNC(=O)[C@H](Cc1ccc(OCC(=O)O)c(C(=O)O)c1)NC(=O)[C@H](Cc1ccccc1)NC(=O)Cc1ccccc1` ?
no

====

target_system: Tyrosine-protein phosphatase non-receptor type 11 (Homo sapiens) (UniProt Q06124)
Sequence (whole entry): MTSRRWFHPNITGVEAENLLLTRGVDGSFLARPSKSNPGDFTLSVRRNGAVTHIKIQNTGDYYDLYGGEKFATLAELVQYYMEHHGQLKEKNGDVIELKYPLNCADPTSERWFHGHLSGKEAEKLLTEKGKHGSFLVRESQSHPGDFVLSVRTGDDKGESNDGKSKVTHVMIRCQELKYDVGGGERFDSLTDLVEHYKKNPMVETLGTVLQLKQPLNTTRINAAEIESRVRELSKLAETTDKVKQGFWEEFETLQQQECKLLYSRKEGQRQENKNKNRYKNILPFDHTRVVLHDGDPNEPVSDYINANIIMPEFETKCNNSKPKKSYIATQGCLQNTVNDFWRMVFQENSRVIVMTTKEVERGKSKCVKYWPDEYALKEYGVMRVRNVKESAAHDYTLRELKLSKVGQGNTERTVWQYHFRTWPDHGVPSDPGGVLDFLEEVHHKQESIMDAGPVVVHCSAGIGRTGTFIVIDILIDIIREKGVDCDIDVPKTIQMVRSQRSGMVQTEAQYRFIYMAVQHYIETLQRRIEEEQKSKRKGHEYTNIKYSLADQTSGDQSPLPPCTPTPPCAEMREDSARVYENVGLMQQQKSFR
method: Inhibition of recombinant human phosphatase (SHP-2) at a concentration of 100 uM
measured_metric: inhibition (%)
Give the number; % is assumed, so skip it.

Item `CCCCCNC(=O)[C@H](Cc1ccc(OCC(=O)O)c(C(=O)O)c1)NC(=O)[C@H](Cc1ccccc1)NC(=O)CCNC(=O)OC(C)(C)C` has what recorded inhibition?
19

Same read-out for `CCCCCNC(=O)[C@H](Cc1ccc(OCC(=O)O)c(C(=O)O)c1)NC(=O)[C@H](Cc1ccccc1)NC(=O)CCc1ccccc1` ?
12

Same read-out for `CCCCCNC(=O)[C@H](Cc1ccc(OCC(=O)O)c(C(=O)O)c1)NC(=O)[C@H](Cc1ccccc1)NC(=O)Cc1ccc(C)cc1` ?
20

Same read-out for `CCCCCNC(=O)[C@H](Cc1ccc(OC(C(=O)O)C(=O)O)cc1)NC(=O)[C@H](Cc1ccc(O)cc1)NC(=O)OC(C)(C)C` ?
5

====

target_system: Receptor-type tyrosine-protein phosphatase F (Homo sapiens) (UniProt P10586)
Sequence (P10586 whole entry): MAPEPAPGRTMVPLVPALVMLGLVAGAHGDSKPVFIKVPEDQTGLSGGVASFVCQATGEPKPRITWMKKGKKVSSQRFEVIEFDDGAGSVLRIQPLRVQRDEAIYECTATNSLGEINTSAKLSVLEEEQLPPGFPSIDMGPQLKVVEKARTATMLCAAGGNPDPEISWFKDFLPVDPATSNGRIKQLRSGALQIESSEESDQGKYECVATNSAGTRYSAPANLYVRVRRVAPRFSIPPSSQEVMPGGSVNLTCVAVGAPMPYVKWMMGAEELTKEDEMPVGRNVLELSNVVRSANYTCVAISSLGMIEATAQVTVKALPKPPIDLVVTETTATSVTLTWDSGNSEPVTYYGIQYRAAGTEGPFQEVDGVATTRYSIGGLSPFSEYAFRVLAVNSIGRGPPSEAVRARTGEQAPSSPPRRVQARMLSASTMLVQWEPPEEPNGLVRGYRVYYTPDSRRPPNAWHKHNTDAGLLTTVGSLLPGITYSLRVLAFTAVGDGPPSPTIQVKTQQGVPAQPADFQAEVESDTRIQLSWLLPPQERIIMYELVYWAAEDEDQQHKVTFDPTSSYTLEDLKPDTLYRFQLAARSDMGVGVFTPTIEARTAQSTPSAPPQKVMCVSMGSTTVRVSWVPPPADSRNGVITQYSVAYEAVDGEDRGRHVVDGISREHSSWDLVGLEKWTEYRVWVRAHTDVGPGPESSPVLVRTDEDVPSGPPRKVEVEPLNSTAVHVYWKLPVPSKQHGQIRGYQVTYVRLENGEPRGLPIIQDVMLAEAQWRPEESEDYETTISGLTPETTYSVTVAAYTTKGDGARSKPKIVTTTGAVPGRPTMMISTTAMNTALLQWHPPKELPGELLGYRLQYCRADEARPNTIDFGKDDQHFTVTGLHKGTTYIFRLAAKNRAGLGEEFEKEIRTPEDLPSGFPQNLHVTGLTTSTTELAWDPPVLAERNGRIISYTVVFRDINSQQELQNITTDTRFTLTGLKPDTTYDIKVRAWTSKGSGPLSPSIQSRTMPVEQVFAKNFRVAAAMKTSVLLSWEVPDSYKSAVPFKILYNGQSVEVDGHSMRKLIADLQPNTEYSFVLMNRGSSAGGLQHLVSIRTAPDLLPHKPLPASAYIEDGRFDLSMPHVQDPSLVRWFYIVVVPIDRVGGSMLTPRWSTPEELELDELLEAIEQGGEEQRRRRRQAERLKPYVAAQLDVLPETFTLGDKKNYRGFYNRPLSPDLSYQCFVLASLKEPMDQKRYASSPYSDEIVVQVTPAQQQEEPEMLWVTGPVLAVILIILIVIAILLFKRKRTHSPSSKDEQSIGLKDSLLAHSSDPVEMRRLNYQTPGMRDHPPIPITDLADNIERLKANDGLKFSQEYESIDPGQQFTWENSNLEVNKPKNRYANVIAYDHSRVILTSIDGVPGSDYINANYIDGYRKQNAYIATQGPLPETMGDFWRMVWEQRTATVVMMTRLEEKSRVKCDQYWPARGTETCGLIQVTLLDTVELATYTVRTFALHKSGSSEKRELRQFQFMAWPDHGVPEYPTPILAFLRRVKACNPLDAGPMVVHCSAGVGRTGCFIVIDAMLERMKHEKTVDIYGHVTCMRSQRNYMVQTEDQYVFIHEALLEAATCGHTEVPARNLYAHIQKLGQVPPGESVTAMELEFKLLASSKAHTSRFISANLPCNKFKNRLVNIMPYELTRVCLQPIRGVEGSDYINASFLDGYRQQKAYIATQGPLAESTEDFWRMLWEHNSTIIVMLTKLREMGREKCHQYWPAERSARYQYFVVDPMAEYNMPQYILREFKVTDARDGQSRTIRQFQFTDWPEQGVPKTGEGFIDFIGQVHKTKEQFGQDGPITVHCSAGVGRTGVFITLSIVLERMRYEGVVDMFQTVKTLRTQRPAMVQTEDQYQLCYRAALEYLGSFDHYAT
method: Inhibitory activity against phosphatase (LAR) at a concentration of 100 uM
Known inhibition of a selection of compounds
Give the number; % is assumed, so skip it.

Record excerpt, results attached:
{"columns": ["compound_structure", "inhibition, %"],
 "data": [
  ["CCCCCNC(=O)[C@H](Cc1ccc(OC(C(=O)O)C(=O)O)cc1)NC(=O)[C@H](Cc1c[nH]c2ccccc12)NC(=O)OC(C)(C)C", 18],
  ["CCCCCNC(=O)[C@H](Cc1ccc(OC(C(=O)O)C(=O)O)cc1)NC(=O)[C@H](CC1CCCCC1)NC(=O)OC(C)(C)C", 4],
  ["CCCCCNC(=O)[C@H](Cc1ccc(OCC(=O)O)c(C(=O)O)c1)NC(=O)[C@H](Cc1ccccc1)NC(=O)CCCc1ccccc1", 0],
  ["CCCCCNC(=O)[C@H](Cc1ccc(OC(C(=O)O)C(=O)O)cc1)NC(=O)[C@H](Cc1cccc2ccccc12)NC(=O)OC(C)(C)C", 34],
  ["CCCCCNC(=O)[C@H](Cc1ccc(OC(C(=O)O)C(=O)O)cc1)NC(=O)[C@H](Cc1ccccc1)NC(=O)CCNC(=O)OC(C)(C)C", 2],
  ["CCCCCNC(=O)[C@H](Cc1ccc(OCC(=O)O)c(C(=O)O)c1)NC(=O)[C@H](Cc1ccccc1)NC(=O)OC(C)(C)C", 0],
  ["CCCCCNC(=O)[C@H](Cc1ccc(OCC(=O)O)c(C(=O)O)c1)NC(=O)[C@H](C)NC(=O)OC(C)(C)C", 4],
  ["CCCCCNC(=O)[C@H](Cc1ccc(OCC(=O)O)c(C(=O)O)c1)NC(=O)[C@H](Cc1ccccc1)NC(=O)CSc1nc[nH]n1", 0]
]}

Item `CCCCCNC(=O)[C@H](Cc1ccc(OC(C(=O)O)C(=O)O)cc1)NC(=O)[C@@H](NC(=O)OC(C)(C)C)C(C)C` has what recorded inhibition?
0

Same read-out for `CCCCCNC(=O)[C@H](Cc1ccc(OC(C(=O)O)C(=O)O)cc1)NC(=O)[C@H](Cc1ccccc1)NC(=O)CCOC` ?
6

Same read-out for `CCCCCNC(=O)[C@H](Cc1ccc(OCC(=O)O)c(C(=O)O)c1)NC(=O)[C@H](Cc1ccccc1)NC(=O)CCCO` ?
0

Same read-out for `CCCCCNC(=O)[C@H](Cc1ccc(OCC(=O)O)c(C(=O)O)c1)NC(=O)[C@H](COCOC)NC(=O)OC(C)(C)C` ?
2

====

Known inhibition of a selection of molecules
target_system: Tyrosine-protein phosphatase non-receptor type 1 (Homo sapiens) (UniProt P18031)
Sequence (P18031 whole entry): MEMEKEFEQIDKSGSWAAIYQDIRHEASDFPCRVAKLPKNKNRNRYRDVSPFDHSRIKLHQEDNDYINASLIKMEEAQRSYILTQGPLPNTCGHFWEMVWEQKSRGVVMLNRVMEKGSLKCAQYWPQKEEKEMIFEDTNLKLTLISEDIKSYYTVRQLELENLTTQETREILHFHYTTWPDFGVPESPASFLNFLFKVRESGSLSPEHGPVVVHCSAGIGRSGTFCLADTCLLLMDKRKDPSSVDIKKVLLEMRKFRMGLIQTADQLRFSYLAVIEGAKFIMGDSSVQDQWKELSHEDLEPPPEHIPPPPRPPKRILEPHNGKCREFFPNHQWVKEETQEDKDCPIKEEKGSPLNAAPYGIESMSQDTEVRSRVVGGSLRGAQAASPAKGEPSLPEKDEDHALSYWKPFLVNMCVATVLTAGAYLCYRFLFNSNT
method: Inhibitory activity against human protein tyrosine phosphatase 1B (PTP1B) at a concentration of 1 uM

Item `CCCCCNC(=O)[C@H](Cc1ccc(OC(C(=O)O)C(=O)O)cc1)NC(=O)[C@H](CC1CCCCC1)NC(=O)OC(C)(C)C` has what recorded inhibition?
1%

Same read-out for `CCCCCNC(=O)[C@H](Cc1ccc(OCC(=O)O)c(C(=O)O)c1)NC(=O)[C@H](CCOCOC)NC(=O)OC(C)(C)C` ?
6%

Same read-out for `CCCCCNC(=O)[C@H](Cc1ccc(OCC(=O)O)c(C(=O)O)c1)NC(=O)[C@H](Cc1ccccn1)NC(=O)OC(C)(C)C` ?
10%

Same read-out for `CCCCCNC(=O)[C@H](Cc1ccc(OC(C(=O)O)C(=O)O)cc1)NC(=O)[C@H](CC(C)C)NC(=O)OC(C)(C)C` ?
4%

Same read-out for `CCCCCNC(=O)[C@H](Cc1ccc(OCC(=O)O)c(C(=O)O)c1)NC(=O)[C@H](COCOC)NC(=O)OC(C)(C)C` ?
16%

Same read-out for `CCCCCNC(=O)[C@H](Cc1ccc(OCC(=O)O)c(C(=O)O)c1)NC(=O)[C@H](CO)NC(=O)OC(C)(C)C` ?
11%

Same read-out for `CCCCCNC(=O)[C@H](Cc1ccc(OCC(=O)O)c(C(=O)O)c1)NC(=O)[C@H](Cc1ccccc1)NC(=O)CCCO` ?
23%

====

Known inhibition of a selection of compounds
target_system: Tyrosine-protein phosphatase non-receptor type 11 (Homo sapiens)
method: Inhibition of recombinant human phosphatase (SHP-2) at a concentration of 100 uM
Give the number; % is assumed, so skip it.

Record excerpt, results attached:
{"columns": ["compound", "reading_unit", "inhibition"],
 "data": [
  ["CCCCCNC(=O)[C@H](Cc1ccc(OCC(=O)O)c(C(=O)O)c1)NC(=O)[C@H](Cc1ccc(O)cc1)NC(=O)OC(C)(C)C", "%", 5],
  ["CCCCCNC(=O)[C@H](Cc1ccc(OCC(=O)O)c(C(=O)O)c1)NC(=O)[C@H](Cc1ccccc1)NC(=O)CCCc1ccccc1", "%", 17],
  ["CCCCCNC(=O)[C@H](Cc1ccc(OCC(=O)O)c(C(=O)O)c1)NC(=O)[C@H](Cc1ccccc1)NC(=O)C[S+]([O-])c1nc[nH]n1 (some centres undefined)", "%", 17]
]}

Now examine the next entry.
Item `CCCCCNC(=O)[C@H](Cc1ccc(OCC(=O)O)c(C(=O)O)c1)NC(=O)[C@H](Cc1ccccc1)N1CCCC1=O` has what recorded inhibition?
5
